For each of the compounds below, state its pIC50.
- system_name: PTP ZETA (Homo sapiens)
- Construct: made in house; host or cells: E. coli BL-21 (pGEX 6P-1)
- Sequence (P23471 1667-2028 limits assumed): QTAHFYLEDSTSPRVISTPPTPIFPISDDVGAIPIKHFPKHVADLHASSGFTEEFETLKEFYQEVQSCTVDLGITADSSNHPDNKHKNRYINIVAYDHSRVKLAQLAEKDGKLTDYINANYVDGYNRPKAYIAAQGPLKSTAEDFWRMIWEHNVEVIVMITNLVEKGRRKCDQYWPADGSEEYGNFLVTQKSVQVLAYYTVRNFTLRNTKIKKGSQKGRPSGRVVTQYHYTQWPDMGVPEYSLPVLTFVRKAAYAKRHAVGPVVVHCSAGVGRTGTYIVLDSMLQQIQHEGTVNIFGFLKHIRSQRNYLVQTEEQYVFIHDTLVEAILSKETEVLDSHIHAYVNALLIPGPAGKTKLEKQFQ
- assay_summary: PTP IC50 assay, pNPP or FDP as substrate
- Format: biochemical
- condition_label: 25° C.
pIC50: −log10 of the molar value.

// known answers, use as guide
# compound, pIC50
measured = [
    ("O=S(=O)(c1ccc(SSc2ccc(S(=O)(=O)C(F)(F)F)cc2)cc1)C(F)(F)F [Example 7]", "< 4.00"),
    ("O=C(c1ccccc1)N(Cc1ccc(S(=O)(=O)C(F)(F)F)cc1)Cc1ccc(S(=O)(=O)C(F)(F)F)cc1 [Example 3]", "< 4.00"),
    ("O=C(NCc1ccc(S(=O)(=O)C(F)(F)F)cc1)c1ccccc1 [Example 6]", "< 4.00"),
]

Look up pIC50 for the entries below, preserving their order.
1. O=S(=O)(Nc1ccc(Oc2ccc(Oc3ccc(NS(=O)(=O)C(F)(F)F)cc3)cc2)cc1)C(F)(F)F [Example 71]
2. Cc1cc(NS(=O)(=O)C(F)(F)F)ccc1CCc1ccc(NS(=O)(=O)C(F)(F)F)cc1C [Example 67]
3. O=C(NCc1ccc(S(=O)(=O)C(F)(F)F)cc1)c1ccc(S(=O)(=O)C(F)(F)F)cc1 [Example 5]

## Result
4.19
< 4.00
< 4.00

---

- system_name: PTP SHP2 (Homo sapiens)
- Construct: The catalytic domain was amplified using the following oligonucleotides; made in house; host or cells: Sf-9 insect cells (pFastBac-G2T)
- assay_summary: PTP IC50 assay, pNPP or FDP as substrate
- Assay type: biochemical
- condition_label: pNPP or FDP as substrate, 25° C.; read-out: PTP IC50 SHP2
measurement_label: pIC50
Numbers only, as −log10 of the molar value.

# smiles, pIC50
records = [
    ("O=C(O)c1ccc(Oc2cccc(Oc3ccc(S(=O)(=O)C(F)(F)F)cc3)c2)cc1", 4.74),
]

Below are 3 compounds. Give each one its pIC50.
1. O=S(=O)(Nc1ccc(OCCCOc2ccc(NS(=O)(=O)C(F)(F)F)cc2)cc1)C(F)(F)F
2. O=C(O)c1ccc(Oc2cccc(Oc3ccc(S(=O)(=O)C(F)(F)F)cc3[N+](=O)[O-])c2)cc1
3. O=S(=O)(c1ccc(COCc2ccc(S(=O)(=O)C(F)(F)F)cc2)cc1)C(F)(F)F

## Result
4.69
4.97
5.70

---

Please go through the items and note down their pIC50.
- system_name: PTP 1B (Homo sapiens)
- Construct: made in house; host or cells: Sf-9 insect cells (pFastBac-G2T)
- Sequence (P18031 1-435): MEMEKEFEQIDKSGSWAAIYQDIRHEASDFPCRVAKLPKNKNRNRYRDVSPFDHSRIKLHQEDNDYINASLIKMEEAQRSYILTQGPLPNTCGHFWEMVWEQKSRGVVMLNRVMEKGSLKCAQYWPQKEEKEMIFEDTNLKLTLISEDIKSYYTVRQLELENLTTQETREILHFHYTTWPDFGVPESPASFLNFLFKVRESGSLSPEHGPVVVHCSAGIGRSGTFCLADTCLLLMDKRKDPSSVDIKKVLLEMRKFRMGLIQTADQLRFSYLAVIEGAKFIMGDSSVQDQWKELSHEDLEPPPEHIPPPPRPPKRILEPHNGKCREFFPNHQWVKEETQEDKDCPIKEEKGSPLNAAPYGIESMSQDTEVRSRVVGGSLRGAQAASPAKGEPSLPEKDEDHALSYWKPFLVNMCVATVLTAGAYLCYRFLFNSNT
- assay_summary: PTP IC50 assay, fluorescent substrate DiFMUP
- Assay type: biochemical
- condition_label: DiFMUP as substrate, 25° C.; read-out: PTP IC50 1B
Give bare numbers, as −log10 of the molar value.

# molecule, measured_number
measured = [
    ("O=C(O)Cn1c(C(=O)O)cc2cc(NS(=O)(=O)C(F)(F)F)ccc21 [Example 97]", 4.35),
    ("O=[N+]([O-])c1cc(S(=O)(=O)C(F)(F)F)ccc1OCC(CN1CCOCC1)Oc1ccc(S(=O)(=O)C(F)(F)F)cc1[N+](=O)[O-] (centres unmarked) [Example 56]", 5.32),
    ("O=S(=O)(c1ccc(-c2ncc(-c3ccc4ccccc4c3)o2)cc1)C(F)F [Example 64]", 5.27),
    ("O=[N+]([O-])c1ccccc1NCC(O)COc1ccc(S(=O)(=O)C(F)(F)F)cc1[N+](=O)[O-] (centres unmarked) [Example 58]", 5.03),
]

# ---- query molecule ----
## Task pIC50 of CN(Cc1ccc2cc(C(=O)Nc3cccc(C(=O)O)c3)ccc2c1)S(=O)(=O)C(F)(F)F [Example 93] on PTP 1B (Homo sapiens)?
## Result 4.80

---

- system_name: PTP BETA (Homo sapiens)
- Construct: The catalytic domain was amplified using the following oligonucleotides; made in house; host or cells: E. coli BL-21 (pGEX 6P-1)
- Sequence (P23467 1653-1997): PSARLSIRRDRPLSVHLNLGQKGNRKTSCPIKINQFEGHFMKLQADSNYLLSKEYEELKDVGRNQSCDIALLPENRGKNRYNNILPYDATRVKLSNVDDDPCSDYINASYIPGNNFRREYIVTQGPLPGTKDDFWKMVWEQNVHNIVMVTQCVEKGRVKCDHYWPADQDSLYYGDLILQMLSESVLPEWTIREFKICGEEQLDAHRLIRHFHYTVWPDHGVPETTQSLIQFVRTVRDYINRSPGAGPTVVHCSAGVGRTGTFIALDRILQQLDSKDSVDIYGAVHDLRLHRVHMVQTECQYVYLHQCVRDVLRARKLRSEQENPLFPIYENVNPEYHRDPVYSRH
- assay_summary: PTP IC50 assay, pNPP or FDP as substrate
- Type: biochemical
- condition_label: pNPP or FDP as substrate, 25° C.; read-out: PTP IC50 Beta
So I've got a bunch of compounds here, and I need their pIC50 values.
Numbers only, as −log10 of the molar value.

Below: 5 compounds and their reported pIC50.
# compound, pIC50
measured = [
    ("O=S(=O)(Nc1ccc(Oc2ccc(Oc3ccc(NS(=O)(=O)C(F)(F)F)cc3)cc2)cc1)C(F)(F)F [Example 71]", 4.92),
    ("COC(=O)Cc1cc(Oc2ccc(S(=O)(=O)C(F)(F)F)cc2[N+](=O)[O-])cc(Oc2ccc(S(=O)(=O)C(F)(F)F)cc2[N+](=O)[O-])c1 [Example 10]", 4.69),
    ("O=C(Cc1cccc(CC(=O)Nc2cccc(S(=O)(=O)C(F)(F)F)c2)c1)Nc1cccc(S(=O)(=O)C(F)(F)F)c1 [Example 21]", 5.51),
    ("O=[N+]([O-])c1cc(S(=O)(=O)C(F)(F)F)ccc1OC1CCC(Oc2ccc(S(=O)(=O)C(F)(F)F)cc2[N+](=O)[O-])C1 (mixture of isomers) [Example 12]", 4.75),
    ("COC(=O)c1cc(Oc2ccc(S(=O)(=O)C(F)(F)F)cc2[N+](=O)[O-])cc(Oc2ccc(S(=O)(=O)C(F)(F)F)cc2[N+](=O)[O-])c1 [Example 11]", 4.95),
]

For each of the items listed, what is its pIC50?
1. O=C(O)Cc1cccc(CC(=O)Nc2cccc(S(=O)(=O)C(F)(F)F)c2)c1 [Example 28]
2. O=S(=O)(Nc1ccc(OCCCCOc2ccc(NS(=O)(=O)C(F)(F)F)cc2)cc1)C(F)(F)F [Example 70]
3. O=C(O)c1ccc(Oc2cccc(Oc3ccc(S(=O)(=O)C(F)(F)F)cc3[N+](=O)[O-])c2)cc1 [Example 15]
4. O=C(O)c1cc(Oc2ccc(S(=O)(=O)C(F)(F)F)cc2)cc(Oc2ccc(S(=O)(=O)C(F)(F)F)cc2)c1 [Example 31]
5. COC(=O)c1c(Oc2ccc(S(=O)(=O)C(F)(F)F)cc2[N+](=O)[O-])cc(C)cc1Oc1ccc(S(=O)(=O)C(F)(F)F)cc1[N+](=O)[O-] [Example 13]

## Result
1: 5.49; 2: 5.15; 3: 4.99; 4: 5.35; 5: 4.82

Give measured pIC50 for every item shown.
1. O=C(O)Cc1ccccc1CC(=O)Nc1cccc(S(=O)(=O)C(F)(F)F)c1 [Example 27]
2. O=S(=O)(Nc1ccc(Oc2cccc(Oc3ccc(NS(=O)(=O)C(F)(F)F)cc3)c2)cc1)C(F)(F)F [Example 74]

## Result
1: 4.21; 2: 4.58

---

- system_name: PTP SHP2 (Homo sapiens, UniProt Q06124)
- Construct: The catalytic domain was amplified using the following oligonucleotides; made in house; host or cells: Sf-9 insect cells (pFastBac-G2T)
- Sequence (Q06124 247-517 limits assumed): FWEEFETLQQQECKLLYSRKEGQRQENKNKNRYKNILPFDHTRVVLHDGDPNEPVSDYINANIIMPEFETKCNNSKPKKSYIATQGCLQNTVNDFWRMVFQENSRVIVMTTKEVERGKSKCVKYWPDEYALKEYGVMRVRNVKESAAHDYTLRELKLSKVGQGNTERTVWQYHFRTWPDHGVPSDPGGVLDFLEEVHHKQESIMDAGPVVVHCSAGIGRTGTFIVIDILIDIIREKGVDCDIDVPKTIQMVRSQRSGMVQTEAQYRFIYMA
- assay_summary: PTP IC50 assay, fluorescent substrate DiFMUP
- Assay type: biochemical
- condition_label: DiFMUP as substrate, 25° C.; read-out: PTP IC50 SHP2
Please note: IC50 exactly at 6 µM is no. Only values below 6 µM get yes.

Example results:
# compound, label
rows = [
    ("O=C(O)c1ccc(NC(=O)c2cc3cc(NS(=O)(=O)C(F)(F)F)ccc3[nH]2)cc1 [Example 84]", "no"),
    ("Cn1c(C(=O)O)cc2cc(NS(=O)(=O)C(F)(F)F)ccc21 [Example 78]", "no"),
    ("CCOC(=O)c1cccc(NC(=O)c2ccc(-c3nc4cc(S(=O)(=O)C(F)(F)F)ccc4n3CC)cc2)c1 [Example 39]", "yes"),
    ("CCCN(C(C)=O)C(C(=O)NCC(=O)OCC)c1ccc(S(=O)(=O)C(F)(F)F)cc1 (centres unmarked) [Example 50]", "no"),
    ("O=C(O)c1cccc(NC(=O)c2cc3cc(NS(=O)(=O)C(F)(F)F)ccc3[nH]2)c1 [Example 83]", "no"),
]

## Task Confirm or reject: IC50 of NS(=O)(=O)c1ccc(NCC(COc2ccc(S(=O)(=O)C(F)(F)F)cc2[N+](=O)[O-])Oc2ccc(S(=O)(=O)C(F)(F)F)cc2[N+](=O)[O-])cc1 (centres unmarked) [Example 62] lies strictly below 6 µM
## Result yes

## Task Say whether its IC50 is strictly beneath 6 µM. Entry: O=C(O)c1cc2cc(NS(=O)(=O)C(F)(F)F)ccc2n1Cc1ccccc1 [Example 102]
## Result yes
